test: in vitro; settings: human, Caco-2
QUANTITY: recovery

>>> obs_value("CC(C)(C)NCC(O)COc1cccc2c1CC(O)C(O)C2 (centres unmarked) [nadolol]")
"> 93%"

Read the next record carefully.
recovery lookup needed for COCCc1ccc(OCC(O)CNC(C)C)cc1 (centres unmarked) [metoprolol] , thanks. > 93%
